The values you see were collected from PubChem BioAssay.

experiment: MRP1 drug-resistance reversers in H69AR cells – cell-based, doxorubicin co-treatment, pilot screen (AID 601); details: H69AR cells, CellTiter-Glo, 72 h; compound alone cytotoxicity; at 10 µM

compound	viability (%)
C=C(C)c1cccc(C(C)(C)NC(=O)NCC2CCCO2)c1 (stereo unspecified)	93.7
Fc1ccc(-c2ccc(-c3nn4c(-c5ccco5)nnc4s3)o2)cc1	79.7
Cc1cc(C)nc(NC2=NCC(=O)N2c2ccccc2Br)n1	89.8
C=CCOC(=O)COc1ccc2c(C)c(C)c(=O)oc2c1C	125
Cc1ccc(C)c(S(=O)(=O)n2cnc3ccccc32)c1	99
O=C(O)C1C2C=CC3(CN(C4CCCC4)C(=O)C13)O2 (stereo unspecified)	83.7
CCCCCn1c(CN2CCN(C(=O)c3ccco3)CC2)nc2c1c(=O)n(C)c(=O)n2C	77.5
Cc1c(C(=O)OC2CCC(C)CC2)[nH]c2c1C(=O)CCC2 (stereo unspecified)	86.8
CCOC(=O)N1CCC(N2C(=O)c3ccccc3C2Nc2ccccc2C)CC1 (stereo unspecified)	79.8
Cc1noc(/C=C/N(C)C)c1S(=O)(=O)N1CCCC(C(=O)NCCC2=CCCCC2)C1 (stereo unspecified)	104
COc1ccc(NC(=O)C2Cc3ccccc3C(=O)O2)cc1 (stereo unspecified)	91.8

---

test: viability of PTEN-null HCT116 cells – cell-based, HCT116 clonal line, CellTiter-Glo, pilot screen (AID 824); conditions: HCT116 PTEN-deleted viability, 60 h, at 10 µM, stronger effect = lower value;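 further: 0% = 20 µM Hyamine control and 100% = vehicle cell control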
Results filed as inconclusive are left out.
Each record here notes measured viability.

compound	viability, %
CCOC(=O)C1C(C)N=C2SCC(=O)N2C1c1cccc(Br)c1 (stereo unspecified)	93.2
Cc1ccc2cc(CCNC(=O)C(C)C)c(=O)[nH]c2c1C	99.1
Cc1ccc(N(C)C(=O)N2CCN(c3ccccn3)CC2)cc1	97.1
CC(C)n1c(=O)[nH]c2ccccc21	89.8
CCOC(=O)C1CCN(C(=O)CN(c2ccc(OC)cc2)S(=O)(=O)c2c(C)noc2C)CC1	96.7
CCOc1ccc(Cc2nnc(SCC(=O)c3ccc(OC)cc3)o2)cc1	70.3
COc1cc(C(=O)N2c3ccccc3CC2C)cc(OC)c1OC (stereo unspecified)	83.8
Cc1ccc(C)c(N2CCN(CCCNC(=O)Cn3cc4c(n3)CCC(C)C4)CC2)c1 (stereo unspecified)	2.81
O=C1OCc2cc(NC(=O)C3COc4ccccc4O3)ccc21 (stereo unspecified)	93.3
O=C(NC1CCCC1)C1CCCN(S(=O)(=O)c2cccc3cccnc23)C1 (stereo unspecified)	99.3
Cc1nc2ccccc2c2oc(C(=O)NCCN3CCCCC3C)cc12 (stereo unspecified)	70.6

---

experiment: S. cerevisiae growth inhibition in restrictive medium, OD615, pilot screen, restrictive growth control, yeast lifespan reduction project (AID 706); settings: OD615, 48 h, at 10 µM, stronger effect = higher value;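 further: modified DeaD lifespan yeast strain shifted to restrictive glucose medium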

compound	growth inhibition [%]
CC1CCCC(NC(=O)c2ccc(CNc3c(N4CCCC4)c(=O)c3=O)cc2)C1C (stereo unspecified)	2.02
CCOc1ccc(S(=O)(=O)N2CCN(c3ccc(C)cc3C)CC2)cc1	5.65
Fc1cccc(Nc2ncnc3c2cnn3-c2ccccc2)c1	-6.66
CC(C)c1ccc(C(O)c2cnc(C(C)C)n2C)cc1 (stereo unspecified)	-0.345
CCOC(=O)C(CC)Sc1ncnc2nc[nH]c12 (stereo unspecified)	-11.7
OC(COc1ccccc1)Cn1cc(Br)cn1 (stereo unspecified)	-8.39

---

assay: doxorubicin toxicity protection in MRP-1 cells – H69AR cells, CellTiter-Glo, duplicate, MRP-1 activator project, pilot screen (AID 807); conditions: H69AR viability with doxorubicin, CellTiter-Glo luminescence; at 10 µM; stronger effect = higher value;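 further: compound pretreatment 18-22 h then 72 h combined with doxorubicin; 0% = doxorubicin alone and 100% = vehicle without doxorubicin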
Each record here notes measured viability increase.

compound	viability increase / %
COc1cccc(NC(=O)Cn2cnc3sc(C)c(S(=O)(=O)N4CCN(C)CC4)c3c2=O)c1	-1.93
COc1ccc(OC)c(NC(=O)c2cn(C)c(=O)c3cc(OC)c(OC)cc23)c1	-4.55
CCOC(=O)N1CCN(c2nc(=S)n(-c3ccccc3)c(C)c2C(C)=O)CC1	-1.09
O=C(NCCN1C(=O)C2C3C=CC(C3)C2C1=O)N1CCOCC1 (stereo not given)	-1.43
CCOC(=O)Cn1c(CN(C)Cc2ccccc2)nc2c1c(=O)n(C)c(=O)n2C	-2.98
CCCC(=O)C1=C(O)C(C(=O)OC)C(C)(C)CC1=Nc1ccccc1 (stereo not given)	-0.91
COc1cccc(C2CC(=O)Nc3cc4c(cc32)OCCO4)c1OC(C)C (stereo not given)	-4.91
COCCn1c(=N)c(C(=O)NCCc2ccccc2)cc2c(=O)n3cccc(C)c3nc21	-4.45
CCOC(=O)c1cc2c(=O)n3ccccc3nc2n(CCCOC)c1=NC(C)=O	-4.92
Cc1ccc(-c2nc(-c3ccccc3)no2)c(Cl)c1	-4.72
CCCC(=O)NC(C)c1nc2ccccc2n1C(C)C (stereo not given)	0.47
Cc1nc2nc[nH]c2cc1Br	-2.75
CC1(C)CC(=O)C=C(NCc2cccnc2)C1	-1.4
CC(C)(C)n1nc2c(c1NC(=O)c1ccc(Br)cc1)CS(=O)C2 (stereo not given)	0.64
CCOC(=O)C1CCN(S(=O)(=O)C(F)(F)c2nc3ccccc3s2)CC1	-2.27
Cc1nn(C(=O)c2ccoc2C)c(N)c1-c1ccccc1	2.64
CC(Sc1nc(N2CCOCC2)nc(N2CCOCC2)n1)C(=O)Nc1ccccc1 (stereo not given)	-1.56
NC(=O)C1CCN(C(=O)c2cc3n(n2)C(C(F)(F)F)CC(c2ccco2)N3)CC1 (stereo not given)	-1.57
CCCCN(C)Cc1c(O)ccc2c(-c3ccccc3)cc(=O)oc12	-2.64
CCOC(=O)CN1CC23C=CC(O2)C(C(=O)Nc2ccc(OCC)cc2)C3C1=O (stereo not given)	-0.57
CCc1nn(CC(=O)NCCCN2CCc3ccccc3C2)c(=O)c2cc3sccc3n12	-4.54
CCOC(=O)CCCOC(=O)c1ccc(S(=O)(=O)N(C)C)cc1	-2
O=C(CSc1oc(-c2ccccc2)nc1S(=O)(=O)c1ccc(F)cc1)NCC1CCCO1 (stereo not given)	-3.53
COc1cccc(C(=O)OCn2nnc3ccccc3c2=O)c1OC	0.09
CCOC(=O)C1CCCN(C(=O)Cc2c(C(=O)O)[nH]c3ccccc23)C1 (stereo not given)	-0.1
CC1CN(c2c3c(nc4ncnn24)CCCC3)CC(C)O1 (stereo not given)	-1.41
CCOC(=O)N(C)OC(=O)Nc1ccc(Cl)c(Cl)c1	-0.16
CCOc1ccccc1NC(=O)CSc1nnc(Cc2cccn2C)n1-c1ccc(F)cc1	-5.25
NS(=O)(=O)c1ccc(CCNC2CC(=O)N(CCc3ccccc3)C2=O)cc1 (stereo not given)	1.79
Cc1ccc2c(c1)C(c1ccccc1)N(C(=O)c1ccc(Br)o1)CC(=O)N2 (stereo not given)	-3.95
C(=N\c1nccs1)/c1cccnc1	-0.86
CCn1c(CCC(=O)Nc2cc(F)ccc2C)nc2cc(S(=O)(=O)N(C)C)ccc21	-0.38
Cn1c(C(=O)NCCCN2CCN(c3ccc(F)cc3)CC2)cc2c(=O)n(C)c3ccccc3c21	-5.3
CCCOC(=O)C1C2C=CC3(CN(c4cccc(Cl)c4)C(=O)C13)O2 (stereo not given)	-2.05
CCOCCn1c(SCC(=O)OCc2ccccc2)nc2c1c(=O)[nH]c(=O)n2C	-0.57
CCOC(=O)C1=C(C)NC(=O)NC1c1ccc(Br)s1 (stereo not given)	-0.63
CCc1ccc(N2CC34C=CC(O3)C(C(=O)OC)C4C2=O)cc1 (stereo not given)	0.55
C=CCn1c(SCC(=O)N2CCN(c3ccc(F)cc3)CC2)nnc1-c1ccco1	-2.41
CC(C)=C(NC(=O)c1ccccc1)C(=O)NCCCC(=O)O	-0.03
CCOC(=O)N1CCC(NC(=O)Cn2c3c(c(-c4ccccc4Cl)cc2=O)CCC3)CC1	-0.33
CCCCn1c(CNC(=O)CCC)nc2ccccc21	-2.97
COc1ccc(-c2nc(C#N)c(NCCCN3CCOCC3)o2)cc1	-0.09
Cc1cccc(-n2ncc3c(NC(C)C)ncnc32)c1	-0.3
CC1CCc2nn(CC(=O)NCc3ccc(F)cc3)cc2C1 (stereo not given)	-2.02
CCOc1ccc(S(=O)(=O)Nc2ccccc2C(=O)NCC2CCCO2)cc1 (stereo not given)	-0.84

---

test: RAM pathway blockade in budding yeast – dse1pr::URA3 reporter, 5-FOA selection, pilot screen (AID 869);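 further: 0% = DMSO wells with no growth and 100% = 10 µM 1-NA-PP1 with full growth; RAM network block rescues cells from 5-FOA so hits raise OD615 growth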; settings: S. cerevisiae dse1pr::URA3 5-FOA growth, OD615, 2 d; at 10 µM; stronger effect = higher value; strain carries analog-sensitive mutant Cbk1 kinase
The source made the active and inactive calls.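 The calls were made as follows: active = inhibition over a set limit, the all-compound mean plus 3 SD, in both replicate runs; inconclusive = over that limit in just one replicate run; inactive = at or under that limit in both runs.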
measured_parameter: inhibition

molecule	measured_parameter	result
CCOC(=O)c1sc(NC(=O)COC(=O)c2ccco2)nc1C	inhibition	1.39% (inactive)
COC(=O)c1ccc(N=c2sc(C(=O)OC)cc(=O)n2C)cc1	inhibition	0.495% (inactive)
C(/CCc1ccccc1)=N\n1cnnc1	inhibition	0.44% (inactive)
CSc1nc2c(c(=O)n1C)SC(C)C2 (stereo unspecified)	inhibition	1.56% (inactive)
COC(=O)Cn1cnc2c(nnn2-c2cccc(Cl)c2)c1=O	inhibition	1.28% (inactive)
COc1ccc(N(CC(=O)NC2CCCCCCC2)S(=O)(=O)c2c(C)nn(C)c2C)cc1	inhibition	1.31% (inactive)
CC1CCCN(Cc2nc3c(c(=O)n(C)c(=O)n3C)n2CC(=O)c2ccccc2)C1 (stereo unspecified)	inhibition	-0.325% (inactive)
CC(OC(=O)c1cc[n+]([O-])cc1)C(=O)Nc1ccc(Cl)cn1 (stereo unspecified)	inhibition	1.23% (inactive)
COc1ccccc1NC(=O)C1CCCN(S(=O)(=O)c2cnc[nH]2)C1 (stereo unspecified)	inhibition	0.53% (inactive)
COC(=O)/C=C/S(=O)(=O)c1ccc(NC(C)=O)cc1	inhibition	0.565% (inactive)
CC1CCCCN1C(=O)c1ccc(S(=O)(=O)N2CCCCC2C)cc1 (stereo unspecified)	inhibition	1.99% (inactive)
COC(=O)C1=C(C)NC2=C(C(=O)CCC2)C1c1coc2ccccc2c1=O (stereo unspecified)	inhibition	2.04% (inactive)
COc1ccc(Cl)cc1S(=O)(=O)N1CCN(c2ccc(F)cc2)CC1	inhibition	-0.355% (inactive)
CCCn1c(CN2CCN(C(=O)c3ccco3)CC2)nc2c1c(=O)n(C)c(=O)n2C	inhibition	0.34% (inactive)
COc1ccccc1C(=O)NCCc1nc2ccccc2n1C	inhibition	2.54% (inactive)
O=C(c1ccc(CS(=O)(=O)c2c(Cl)cccc2Cl)o1)N1CCN(c2ccccn2)CC1	inhibition	-0.07% (inactive)
COc1cccc(C2=NOC(C(=O)N3CCc4ccccc4C3)C2)c1 (stereo unspecified)	inhibition	-0.045% (inactive)
CC(=O)N1c2c(cc(Br)cc2S(=O)(=O)N2CCN(c3ccccn3)CC2)CC1C (stereo unspecified)	inhibition	0.77% (inactive)
COc1ccc(CC(=O)Nc2cc(=O)n(C)c(=O)n2C)cc1	inhibition	1.85% (inactive)
COCCNC(=O)Cn1cc2c(n1)CCCCC2	inhibition	3.16% (inactive)
CCCCN(C)Cc1c(O)ccc2c(-c3ccccc3)cc(=O)oc12	inhibition	0.605% (inactive)
COc1cc(S(=O)(=O)N2CCN(c3ccccc3)CC2)ccc1Cl	inhibition	0.17% (inactive)
CC1=C(C(=O)Nc2ccccc2)C(c2ccccn2)n2nc(CCCO)nc2N1 (stereo unspecified)	inhibition	1.56% (inactive)
CC12CN3CCN(CC(C3)C1(O)CN1CCCCC1)C2 (stereo unspecified)	inhibition	1.06% (inactive)
CCOC(=O)c1ccc2ncc(C(=O)OCC)c(NCCCN3CCOCC3)c2c1	inhibition	0.495% (inactive)
COc1ccc(S(=O)(=O)N2CCC(C(N)=O)CC2)cc1	inhibition	3.44% (inactive)
O=C1CC(c2cccnc2)c2cc3c(cc2N1)OCO3 (stereo unspecified)	inhibition	1.17% (inactive)
c1ccn2c(SCc3ccc4c(c3)OCCO4)nnc2c1	inhibition	0.305% (inactive)
CCN(CC)CCN1C(=O)c2oc3ccc(F)cc3c(=O)c2C1c1ccncc1 (stereo unspecified)	inhibition	0.78% (inactive)
CN1CCN(c2nc3c(c(=O)[nH]c(=O)n3C)n2CCSc2nc3ccccc3s2)CC1	inhibition	2.66% (inactive)
CCCCn1c(=NC(=O)c2cccnc2)c(C(=O)OCC)cc2c(=O)n3ccccc3nc21	inhibition	0.685% (inactive)
COC(=O)CN1C(=O)C(O)(CC(=O)c2cccc(Br)c2)c2ccccc21 (stereo unspecified)	inhibition	1.2% (inactive)
c1ccc(C(Cc2nc(-c3ccccn3)no2)c2ccccc2)cc1	inhibition	1.98% (inactive)
CCOC(=O)CSc1nnc(Cn2c(=O)sc3ccccc32)n1C	inhibition	0.27% (inactive)
Cc1ccc(N2CCN(c3cc(C)nc4nc(C)nn34)CC2)c(C)c1	inhibition	-0.325% (inactive)
c1ccc2c(c1)Cc1cc(CN3CCOCC3)ccc1-2	inhibition	1.01% (inactive)
CN(C)CCNc1ncnc2c1cnn2-c1ccc(Cl)cc1	inhibition	1.62% (inactive)
CC1(C)Oc2ccc3ccc(=O)oc3c2C(N2CCCCC2)C1O (stereo unspecified)	inhibition	1.49% (inactive)
CC(NC(=O)C1CC1)C(c1cccs1)N1CCN(c2ccccc2)CC1 (stereo unspecified)	inhibition	2.08% (inactive)
COc1ccccc1N1C(=O)CCC1(C#N)c1ccccc1 (stereo unspecified)	inhibition	1.52% (inactive)
O=C(Nc1ccc(Cl)c(Cl)c1)c1ccncc1	inhibition	0.83% (inactive)
CC1CCN(c2nc3c(c(=O)[nH]c(=O)n3C)n2CCSc2ncccn2)CC1	inhibition	2.46% (inactive)
CCn1cc(C(=O)NCc2ccccc2OC)c(=O)c2cc(S(=O)(=O)N(C)C)ccc21	inhibition	1.88% (inactive)
CC1=C(C(=O)N2CCCCC2)C(c2cccs2)C2=C(CCCC2=O)N1 (stereo unspecified)	inhibition	1.4% (inactive)
CCCc1nnc(NC(=O)NCCN2C(=O)C3C4C=CC(C4)C3C2=O)s1 (stereo unspecified)	inhibition	-0.135% (inactive)
O=S(=O)(NC1=NCCCCC1)c1cccs1	inhibition	0.765% (inactive)
